Test: The compound was evaluated for its ability to inhibit [3H]NMS binding to Muscarinic acetylcholine receptor in heart
pKi: −log10 of the molar value.
RECORDED_ENDPOINT: pKi

[[record]]
entry_smiles = "CCC#CCON=C1CC2CCC(C1)N2C"
observed_result = 4.20


----------
Molecular target: Muscarinic acetylcholine receptor M1 (Rattus norvegicus)
Sequence (P08482 whole entry): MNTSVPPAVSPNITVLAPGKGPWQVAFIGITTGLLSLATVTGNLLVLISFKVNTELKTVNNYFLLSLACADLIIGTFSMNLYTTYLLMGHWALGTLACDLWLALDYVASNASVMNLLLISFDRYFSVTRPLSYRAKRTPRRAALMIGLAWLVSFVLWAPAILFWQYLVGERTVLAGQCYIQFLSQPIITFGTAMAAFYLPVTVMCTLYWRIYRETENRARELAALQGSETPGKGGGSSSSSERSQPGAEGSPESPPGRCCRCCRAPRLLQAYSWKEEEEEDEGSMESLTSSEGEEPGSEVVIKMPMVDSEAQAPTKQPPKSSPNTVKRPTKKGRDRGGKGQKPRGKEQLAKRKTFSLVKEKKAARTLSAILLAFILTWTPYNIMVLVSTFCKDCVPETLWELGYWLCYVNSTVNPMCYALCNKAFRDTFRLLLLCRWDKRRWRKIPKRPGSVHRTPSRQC
pKi: −log10 of the molar value.
Output Criterion met for pKi not less than 6; output Criterion not met otherwise.

[[record]]
compound = "O=C1CCCN1CC#CCN1CCCC1"
cat = "Criterion met"

[[record]]
compound = "C#CCON=C1CCN(C)CC1"
cat = "Criterion not met"

[[record]]
compound = "CON=C1CCN(C)CC1"
cat = "Criterion not met"

[[record]]
compound = "C#CC(C)ON=C1CCN(C)CC1 (stereo not given)"
cat = "Criterion not met"

[[record]]
compound = "CC#CCON=C1CC2CCC(C1)N2C"
cat = "Criterion met"

[[record]]
compound = "C#CCC(C)ON=C1CC2CCC(C1)N2C (stereo not given)"
cat = "Criterion met"

[[record]]
compound = "CC#CCCON=C1CCN(C)CC1"
cat = "Criterion not met"

[[record]]
compound = "C#CCCCON=C1CCN(C)CC1"
cat = "Criterion not met"

[[record]]
compound = "C#CC(CC)ON=C1CC2CCC(C1)N2C (stereo not given)"
cat = "Criterion met"

[[record]]
compound = "CCC#CCON=C1CCN(C)CC1"
cat = "Criterion not met"

[[record]]
compound = "C[N+](C)(C)CC#CCOC(=O)Nc1cccc(Cl)c1 [McN-A-343]"
cat = "Criterion not met"

[[record]]
compound = "C#CCC(C)ON=C1CCN(C)CC1 (stereo not given)"
cat = "Criterion not met"

[[record]]
compound = "CON=C1CC2CCC(C1)N2C"
cat = "Criterion not met"

[[record]]
compound = "CN1C2CCC1CC(=NO)C2"
cat = "Criterion not met"

